Target system: DHAK (I) (Schizosaccharomyces pombe)
Construct: DHAK (I) and DHAK (II) obtained from Schizosaccharomyces pombe IFO 0354; made in house; host or cells: Schizosaccharomyces pombe IFO 0354 (natural producer, not recombinant); cell extract, DEAE-Sepharose fraction at 0.12 M KCl, then Blue-Sepharose
Sequence (O13902 whole entry): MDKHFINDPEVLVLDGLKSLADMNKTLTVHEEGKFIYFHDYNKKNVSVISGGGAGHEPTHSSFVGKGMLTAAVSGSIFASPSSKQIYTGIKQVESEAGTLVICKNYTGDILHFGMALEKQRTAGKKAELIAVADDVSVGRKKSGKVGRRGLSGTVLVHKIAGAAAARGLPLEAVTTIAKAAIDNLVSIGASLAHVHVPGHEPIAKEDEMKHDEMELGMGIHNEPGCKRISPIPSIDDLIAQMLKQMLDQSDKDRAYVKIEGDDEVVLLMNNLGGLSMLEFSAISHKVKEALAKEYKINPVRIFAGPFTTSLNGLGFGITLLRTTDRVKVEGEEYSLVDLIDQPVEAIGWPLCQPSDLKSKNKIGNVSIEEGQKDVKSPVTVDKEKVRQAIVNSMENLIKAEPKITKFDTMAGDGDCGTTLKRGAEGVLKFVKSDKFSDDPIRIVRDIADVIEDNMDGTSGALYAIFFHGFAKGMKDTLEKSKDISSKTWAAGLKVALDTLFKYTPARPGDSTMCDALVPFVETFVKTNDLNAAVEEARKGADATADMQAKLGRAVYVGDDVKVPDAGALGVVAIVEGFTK
Assay protocol: Substrate specificity of DHAK (I)
Format: biochemical, Schizosaccharomyces pombe IFO 0354
Condition label: pH 7.5, read-out: Relative activity DHAK (I) (substrate)
// reported activity at 1000 µM for each item listed
Give just the number in %; leave the unit off.

Use these answered entries as a reference point.
compound="CC(=O)C(C)O (centres unmarked)" result_value=0
compound="O=CC(O)CO (racemic)" result_value=27
compound=OCCCO result_value=0
compound="CC(O)CO (centres unmarked)" result_value=0

Turning now to a further compound:
# query: activity at 1000 µM | item CC(=O)CO | system: DHAK (I) (Schizosaccharomyces pombe) 0
